Each recorded value in this set is attributed to patent US9115137B2.

# Tested target: human recombinant serotonin (5-Hydroxytryptamine) 5-HT6 receptor (Homo sapiens, UniProt P50406)
# Construct: expressed in transfected cells; host or cells: human HeLa cells
# Sequence (P50406 whole entry): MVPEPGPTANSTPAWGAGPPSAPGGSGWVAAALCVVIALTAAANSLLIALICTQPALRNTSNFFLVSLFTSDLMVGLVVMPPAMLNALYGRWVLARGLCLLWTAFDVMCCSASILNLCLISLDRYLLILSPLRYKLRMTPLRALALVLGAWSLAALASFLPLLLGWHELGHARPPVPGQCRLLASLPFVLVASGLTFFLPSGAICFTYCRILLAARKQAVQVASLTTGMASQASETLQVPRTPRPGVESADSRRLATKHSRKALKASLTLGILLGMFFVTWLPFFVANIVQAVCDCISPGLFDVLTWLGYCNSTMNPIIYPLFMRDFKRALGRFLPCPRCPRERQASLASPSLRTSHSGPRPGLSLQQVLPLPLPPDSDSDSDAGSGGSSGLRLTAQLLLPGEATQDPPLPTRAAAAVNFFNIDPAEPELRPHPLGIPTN
# Assay details: Serotonin 5-HT6 radioligand binding ([3H]LSD)
# Stated conditions: compound at 1 μM; HeLa cells; read-out: Serotonin (1 μM) 5-HT6, percent inhibition of specific binding
# Description: To evaluate in radioligand binding assays the activity of compounds of the invention, human recombinant serotonin (5-Hydroxytryptamine) 5-HT6 receptor expressed in human HeLa cells (Monsma, F. J. Jr. et al., Mol. Pharmacol. 43:320, 1993) in a modified Tris-HCl buffer (50 mM Tris-HCl, pH 7.4, 150 mM NaCl, 2 mM Ascorbic Acid, 0.001% BSA) was used. […] Receptor proteins were filtered and washed, the filters were then counted to determine [3H]LSD specifically bound. […]
Observable: inhibition at 1 µM (%)
Kindly answer with a numeric value in %, unit omitted.

CC(C)OC(=O)CCn1c2c(c3cc(Cl)ccc31)CN(C)CC2 | 99
Cc1ccc2c(c1)c1c(n2CC(=O)NCc2ccccc2)CCN(C)C1 | 58
CN1CCc2c(c3cc(Cl)ccc3n2CC(=O)NC2CCCCC2)C1 | 22
CCCCOC(=O)Cn1c2c(c3cc(Cl)ccc31)CN(C)CC2 | 83
CN1CCc2c(c3cc(Cl)ccc3n2CC(=O)O)C1 | 39

query: Complete the entry with inhibition at 1 µM for Cc1ccc2c(c1)c1c(n2CCNC(=O)C2CCNCC2)CCN(C)C1
result: 3

query: Complete the entry with inhibition at 1 µM for Cc1ccc2c(c1)c1c(n2CC(=O)NC(C)C)CCN(C)C1
result: 3

query: Complete the entry with inhibition at 1 µM for Cc1ccc2c(c1)c1c(n2CCNC(=O)c2ccc(F)cc2Cl)CCN(C)C1
result: 31

query: Complete the entry with inhibition at 1 µM for CN1CCc2c(c3cc(Cl)ccc3n2CCC(=O)OCc2ccccc2)C1
result: 100

query: Complete the entry with inhibition at 1 µM for CNC(=O)CCn1c2c(c3cc(C)ccc31)CN(C)CC2
result: 8

query: Complete the entry with inhibition at 1 µM for CCOC(=O)CCCn1c2c(c3cc(C)ccc31)CN(C)CC2
result: 88

query: Complete the entry with inhibition at 1 µM for CCNC(=O)CCCn1c2c(c3cc(C)ccc31)CN(C)CC2
result: 23

query: Complete the entry with inhibition at 1 µM for CN1CCc2c(c3cc(Cl)ccc3n2CCC(=O)NC2CCCC2)C1
result: 34

query: Complete the entry with inhibition at 1 µM for Cc1ccc2c(c1)c1c(n2CCNC(=O)OCC(Cl)(Cl)Cl)CCN(C)C1
result: 83

query: Complete the entry with inhibition at 1 µM for Cc1ccc2c(c1)c1c(n2CCC(=O)Nc2ccc(F)cc2)CCN(C)C1
result: 63

query: Complete the entry with inhibition at 1 µM for CC(C)OC(=O)Cn1c2c(c3cc(Cl)ccc31)CN(C)CC2
result: 66

###

# Tested target: human recombinant serotonin (5-Hydroxytryptamine) 5-HT2C receptor (Homo sapiens)
# Construct: expressed in transfected cells; host or cells: CHO-K1 cells
# Sequence (P28335 33-458): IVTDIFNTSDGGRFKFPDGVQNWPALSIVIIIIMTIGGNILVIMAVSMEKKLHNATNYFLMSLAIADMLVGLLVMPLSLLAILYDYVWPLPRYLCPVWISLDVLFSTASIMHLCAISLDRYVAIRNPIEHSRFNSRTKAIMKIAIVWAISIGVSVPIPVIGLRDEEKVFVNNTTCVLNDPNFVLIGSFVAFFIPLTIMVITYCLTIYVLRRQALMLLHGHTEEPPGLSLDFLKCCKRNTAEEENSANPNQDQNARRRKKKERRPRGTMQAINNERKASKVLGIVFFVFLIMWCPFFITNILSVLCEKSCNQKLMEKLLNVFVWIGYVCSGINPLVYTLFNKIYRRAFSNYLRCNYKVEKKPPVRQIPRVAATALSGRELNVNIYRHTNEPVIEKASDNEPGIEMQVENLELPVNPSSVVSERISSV
# Assay details: Serotonin 5-HT2C radioligand binding ([3H]Mesulergine)
# Stated conditions: compound at 1 μM; CHO-K1 cells; read-out: Serotonin (1 μM) 5-HT2C, percent inhibition of specific binding
The following molecules are shown together with reported inhibition at 1 µM values.
Kindly answer with a numeric value in %, unit omitted.

In the examples that follow, each entry is paired with its recorded inhibition at 1 µM.
CN1CCc2c(c3cc(Cl)ccc3n2CC(=O)OCC2CCCCC2)C1 | 94
CCNC(=O)Cn1c2c(c3cc(C)ccc31)CN(C)CC2 | 81

query: Complete the entry with inhibition at 1 µM for Cc1ccc2c(c1)c1c(n2CCC(=O)NC2CCCC2)CCN(C)C1
result: 36

query: Complete the entry with inhibition at 1 µM for CCOC(=O)Cn1c2c(c3cc(Cl)ccc31)CN(C)CC2
result: 92

query: Complete the entry with inhibition at 1 µM for Cc1ccc2c(c1)c1c(n2CCC(=O)Nc2ccc(F)cc2)CCN(C)C1
result: 90
